Tested on: Trypanosoma cruzi epimastigotes (Y strain (TCII))
Test: Proliferation of T. cruzi epimastigotes, MTT test, single concentration
Assay type: cell-based
Details: Trypanosoma cruzi, 72 h, 72 h incubation, read-out: T. cruzi % Inhibition ± SD (antiproliferative activity)
property: inhibition at 50 µM (%)
Express the result in % but write the number alone.

For Trypanosoma cruzi epimastigotes (Y strain (TCII)), provide inhibition at 50 µM of Cc1ncc([N+](=O)[O-])n1CCOC(=O)c1ccc(Nc2nnc(-c3cccnc3)s2)cc1 [Compound 18] please.
17.4

Param readout= inhibition at 50 µM; system= Trypanosoma cruzi epimastigotes (Y strain (TCII)); entry= COc1cc(-c2nnc(Nc3ccc(C(=O)OCCn4c([N+](=O)[O-])cnc4C)cc3)s2)cc(OC)c1OC [Compound 23] ; returns value.
20.3

---

System: Trypanosoma cruzi epimastigotes (Y strain (TCII))
Test: Proliferation of T. cruzi epimastigotes, MTT test, single concentration
Assay type: cell-based
Conditions: Trypanosoma cruzi, 72 h, 72 h incubation, read-out: T. cruzi % Inhibition ± SD (antiproliferative activity)
Experimental: A drug-free control (negative control) was included and positive controls were Metronidazole (Mtz), Benznidazole (Bnz), Amphotericin B (Aph), and Nifurtimox (Nfx), (50 μM). […] Parasites were collected in the logarithmic phase of growth before the experiments. […] Subsequently, the compounds to be evaluated, dissolved in DMSO (0.1% final), were added at a single concentration of 50 μM. […] Finally, the cells were lysed with DMSO and the plate was read in a spectrophotometer at 570 nm.
Overview of reported inhibition at 50 µM across a group of compounds:
All answers are understood in %, so give the number only.

>>> df
                                   compound             property  assayresult
0  O=C(Cn1ccnc1[N+](=O)[O-])NCc1ccccc1 [Bnz, Benznidazole, reference compound]  inhibition at 50 µM         45.4
1  Cc1ncc([N+](=O)[O-])n1CCO [Mtz, Metronidazole, reference compound]  inhibition at 50 µM         12.2
2  Cc1ncc([N+](=O)[O-])n1CCOC(=O)c1ccc(Nc2nnc(-c3ccc(-c4ccccc4)cc3)s2)cc1  inhibition at 50 µM            7

Next:
Please tell me: inhibition at 50 µM of CC1CS(=O)(=O)CCN1/N=C/c1ccc([N+](=O)[O-])o1 (centres unmarked) [Nfx, Nifurtimox, reference compound] , system Trypanosoma cruzi epimastigotes (Y strain (TCII))?
83

Value source: paper PMC11396972
